Assay: protein stability index of a GFP-peptide fusion (GPS, HEK-293T) (PSI 1-6); higher = more stable;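 note: 24-mer peptide tiles fused after GFP, lentivirally expressed, FACS-sorted into six equal bins by GFP/DsRed ratio, decoded by Illumina sequencing, PSI is the read-weighted mean bin number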
Conditions: treatment: DMSO; c terminus: a fixed tail appended
I would appreciate it if you labelled entries 1 (yes) when protein stability index is 3 or higher, otherwise 0 (no).

Below are worked cases with known answers.
orderedResidues: VTLNFNVPGEFKQDVTVVGSAGRL [GFOD1]
groupLabel: 0 (no)
//
orderedResidues: AAVKENQMTPTNLAVCLAPSLFHL [DLC1]
groupLabel: 0 (no)
//
orderedResidues: FRPYFTIHDSEFKEYTTRTQAPPS [DENND6A]
groupLabel: 0 (no)
//
orderedResidues: QVIHPQEFRRWRDTGVAFELRDSS [DNAAF3]
groupLabel: 1 (yes)
//
orderedResidues: DRLVVTECQLTHSHPACPLEFAYY [ZSWIM9]
groupLabel: 0 (no)
//
orderedResidues: APFPNVSTSLLTSAGNRTHKARTR [ADAMTSL2]
groupLabel: 1 (yes)
//
orderedResidues: IPAAVLAGFTGSGPIQLWQFLLEL [ETS2]
groupLabel: 0 (no)
//
orderedResidues: IAPVLKLASHHNHFSQIVIFMLCT [OR10K2]
groupLabel: 1 (yes)
//
orderedResidues: EQDRIPEVHVPPSSAVSGVKEWFG [MIA2]
groupLabel: 1 (yes)
//
orderedResidues: GPSVSEPPGLPRVSAYVDTTADLD [SPATS1]
groupLabel: 1 (yes)

Hi team, for PASYTAPIMSGQGLAGFFASVAMI [SLC29A1] , is the recorded protein stability index at or above 3?
0 (no)

Hi team, for FIGETLLSMNWAIVADILLYVVIP [SPNS1] , is the recorded protein stability index at or above 3?
1 (yes)

----------
Test: protein stability index of a GFP-peptide fusion (GPS, HEK-293T) (PSI 1-6); higher = more stable
Settings: treatment: DMSO; c terminus: a fixed tail appended
Attribute: protein stability index
Hey, just send me the number, nothing else.

Guide cases for protein stability index, answers given:
orderedResidues: LVDVRQEQLQGFNTRVRELAQAAG [DNAAF3]
protein stability index: 3.67
//
orderedResidues: IASEPTNKHLFYAEDFSTMDEISE [MATN2]
protein stability index: 4.57
//
orderedResidues: EVIYPQHSKLTDREKTNICYLSFP [DENND6A]
protein stability index: 2.2

Name the recorded protein stability index for IYVIGDLDTGTNYDYVREFKRSTG [GAN] .
2.18

Name the recorded protein stability index for DLGGSIYANLALSGLIEIQSYPLC [SLC22A15] .
3.02

Name the recorded protein stability index for ECEEGELSFYDAERHCHLYTFHAR [TRIM35] .
3.18

Name the recorded protein stability index for AVARSPKRPAWGSRRFEAVGWWAL [POMT2] .
2.88

Name the recorded protein stability index for PDTQENRRMFSSLFQFSNCSQGQQ [CCDC3] .
3.67

Name the recorded protein stability index for WRNIILMSLLHLGALYGITLIPTC [SCD] .
2.83

Name the recorded protein stability index for AALELLPRELFPPLFMAAFDGRHS [PRAME] .
2.27

Name the recorded protein stability index for ESLTEDEATQFLKQILDGVHYLHS [DAPK3] .
3.06

Name the recorded protein stability index for GGGSYGKLFESVECYDPRTQQWTA [GAN] .
3

Name the recorded protein stability index for VIKISYSTPQGKGEVVKIPSRVHG [PWWP2B] .
2.5
